Assayed system: h-GABA-A α5β3γ2 (Homo sapiens, UniProt P18507+P31644)
Construct: expressed in transfected cells; host or cells: Xenopus laevis oocytes, micro-injected with subunit RNA
Sequence (P31644 32-462): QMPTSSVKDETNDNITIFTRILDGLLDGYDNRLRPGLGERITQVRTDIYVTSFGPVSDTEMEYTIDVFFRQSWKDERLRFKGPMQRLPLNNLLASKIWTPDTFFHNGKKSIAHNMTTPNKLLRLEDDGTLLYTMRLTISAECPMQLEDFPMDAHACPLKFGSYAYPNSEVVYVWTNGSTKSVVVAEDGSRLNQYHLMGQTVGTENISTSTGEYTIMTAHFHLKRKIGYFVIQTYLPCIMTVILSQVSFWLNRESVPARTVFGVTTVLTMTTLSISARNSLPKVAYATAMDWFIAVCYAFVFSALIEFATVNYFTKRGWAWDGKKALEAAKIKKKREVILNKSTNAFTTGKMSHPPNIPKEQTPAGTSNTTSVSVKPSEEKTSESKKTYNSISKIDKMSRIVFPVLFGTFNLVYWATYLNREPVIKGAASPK
Sequence (P28472 26-473 partner): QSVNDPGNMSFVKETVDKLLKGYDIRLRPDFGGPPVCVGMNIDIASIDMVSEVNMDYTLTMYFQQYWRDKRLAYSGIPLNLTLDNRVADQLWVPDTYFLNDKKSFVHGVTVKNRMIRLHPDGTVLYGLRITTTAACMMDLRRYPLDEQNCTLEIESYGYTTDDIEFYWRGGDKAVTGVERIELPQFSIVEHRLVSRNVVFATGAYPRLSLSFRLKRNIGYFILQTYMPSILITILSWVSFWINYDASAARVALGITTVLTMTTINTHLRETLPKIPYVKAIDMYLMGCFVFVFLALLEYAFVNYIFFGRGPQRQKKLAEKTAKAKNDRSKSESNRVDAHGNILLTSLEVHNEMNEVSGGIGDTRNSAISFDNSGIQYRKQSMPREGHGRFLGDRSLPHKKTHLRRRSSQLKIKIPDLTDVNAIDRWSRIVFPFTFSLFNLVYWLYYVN
Sequence (P18507 40-475): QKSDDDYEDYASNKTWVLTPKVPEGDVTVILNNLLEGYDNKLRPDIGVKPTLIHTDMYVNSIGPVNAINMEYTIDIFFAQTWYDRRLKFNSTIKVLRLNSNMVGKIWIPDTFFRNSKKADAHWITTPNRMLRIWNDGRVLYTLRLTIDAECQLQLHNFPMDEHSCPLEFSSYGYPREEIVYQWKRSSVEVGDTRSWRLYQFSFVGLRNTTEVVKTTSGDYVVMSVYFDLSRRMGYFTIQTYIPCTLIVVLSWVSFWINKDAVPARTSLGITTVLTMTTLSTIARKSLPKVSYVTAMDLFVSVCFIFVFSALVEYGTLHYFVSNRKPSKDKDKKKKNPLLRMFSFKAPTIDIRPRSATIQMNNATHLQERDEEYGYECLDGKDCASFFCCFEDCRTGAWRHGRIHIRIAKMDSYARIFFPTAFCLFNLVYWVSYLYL
Test protocol: Two-electrode voltage clamp electrophysiology in Xenopus oocytes expressing GABAA receptors (modulation of GABA EC20 current)
Type: cell-based
Condition: Table 1; Xenopus oocytes, GABA EC20, test compound at approximatively 30 fold its Ki
Result type: Fold increase h-GABA-A α5β3γ2 oocyte
Numbers only.

Answered cases to consult:
{"Compound structure": "Cn1nnc(-c2ccc(Cl)cc2F)c1Cn1ncc(N2CC(Oc3ccnc(C(F)(F)F)n3)C2)cc1=O", "Result type": "Fold increase h-GABA-A α5β3γ2 oocyte", "Data value": 1.79}
{"Compound structure": "CN(C)c1cnn(Cc2c(-c3ccc(Cl)cc3)nnn2C)c(=O)c1", "Result type": "Fold increase h-GABA-A α5β3γ2 oocyte", "Data value": 1.35}
{"Compound structure": "Cn1nnc(-c2ccc(Cl)cc2F)c1Cn1ncc(N2CC(Oc3cncc(C(F)(F)F)n3)C2)cc1=O", "Result type": "Fold increase h-GABA-A α5β3γ2 oocyte", "Data value": 1.58}

Read the next record carefully.
Lookup: What value of Fold increase h-GABA-A α5β3γ2 oocyte has been reported for the following compound? Cn1nnc(-c2ccc(Cl)cc2F)c1Cn1ncc(-c2cccc(C#N)n2)cc1=O
Found: 3.34
